System: IGROV-1
method.summary: SRB colorimetric assay of cell growth and viability, IGROV-1
Type: cell-based, human
study.conditions: IGROV; 48 hours exposure
Where a SMILES comes first, the peptide text is derived from it. Bridges are numbered along the chain shown (N, C = ends). [ ]: non-standard residue; d: D form. The star is where a group is joined. d(aIle) = CC[C@H](C)[C@@H](N)C(=O)O; d(aThr) = C[C@@H](O)[C@@H](N)C(=O)O; Hexanoyl(5-Me) = CC(C)CCCC(=O)*; Orn = NCCC[C@H](N)C(=O)O; Dhb = C/C=C(\N)C(=O)O
measurement.kind: GI50 (nM)
Please respond with the number in nM and leave the unit unwritten.

compound	GI50 (nM)
C/C=C1\NC(=O)[C@H](Cc2ccccc2)NC(=O)[C@@H](C(C)C)NC(=O)[C@@H]([C@@H](C)CC)NC(=O)[C@H](NC(=O)[C@H](NC(=O)[C@H](CCCN)NC(=O)[C@H]2CCCN2C(=O)[C@H](NC(=O)[C@@H](NC(=O)[C@@H]2CCCN2C(=O)[C@H](NC(=O)CCCC(C)C)C(C)C)C(C)C)C(C)C)[C@@H](C)CC)[C@@H](C)OC(=O)[C@H](C(C)C)NC1=O [Compound 117, [Pro^12]-KF] ({Hexanoyl(5-Me)}-[dV]PV[dV][dP][Orn][d(aIle)][d(aThr)][d(aIle)][dV]F[Dhb]V; ester 8-C)	1970

The record that follows has no GI50 shown yet.
[ask] For the compound C/C=C1\NC(=O)[C@H](Cc2ccccc2Cl)NC(=O)[C@@H](C(C)C)NC(=O)[C@@H]([C@@H](C)CC)NC(=O)[C@H](NC(=O)[C@H](NC(=O)[C@H](CCCN)NC(=O)[C@H]2CCCN2C(=O)[C@H](NC(=O)[C@@H](NC(=O)[C@@H](NC(=O)[C@H](NC(=O)CCCC(C)C)C(C)C)[C@@H](C)O)C(C)C)C(C)C)[C@@H](C)CC)[C@@H](C)OC(=O)[C@H](C(C)C)NC1=O [Compound 81, [Phe(2-Cl)^3]-KF] , what GI50 is on record?
[reply] 86.7

###

Overview of recorded CC50 for various molecules
Test system: LoVo-Dox
method.summary: SRB colorimetric assay of cell growth and viability, LoVo-Dox
Type: cell-based, human
study.conditions: LOVO-DOX; 48 hours exposure; read-out: LC50 LOVO-DOX
Where a SMILES comes first, the peptide text is derived from it. Bridges are numbered along the chain shown (N, C = ends). [ ]: non-standard residue; d: D form. The star is where a group is joined. d(aIle) = CC[C@H](C)[C@@H](N)C(=O)O; d(aThr) = C[C@@H](O)[C@@H](N)C(=O)O; hCha = N[C@@H](CCC1CCCCC1)C(=O)O; Hexanoyl(5-Me) = CC(C)CCCC(=O)*; Orn = NCCC[C@H](N)C(=O)O; Dhb = C/C=C(\N)C(=O)O
Answer format: numeric, nM implied, no suffix.

Some molecules with recorded CC50:
molecule	test.system	unit.of.measurement	CC50
C/C=C1\NC(=O)[C@H](CCC2CCCCC2)NC(=O)[C@@H](C(C)C)NC(=O)[C@@H]([C@@H](C)CC)NC(=O)[C@H](NC(=O)[C@H](NC(=O)[C@H](CCCN)NC(=O)[C@H]2CCCN2C(=O)[C@H](NC(=O)[C@@H](NC(=O)[C@@H](NC(=O)[C@H](NC(=O)CCCC(C)C)C(C)C)[C@@H](C)O)C(C)C)C(C)C)[C@@H](C)CC)[C@@H](C)OC(=O)[C@H](C(C)C)NC1=O [Compound 63] ({Hexanoyl(5-Me)}-[dV]TV[dV][dP][Orn][d(aIle)][d(aThr)][d(aIle)][dV][hCha][Dhb]V; ester 8-C)	LoVo-Dox	nM	502
C/C=C1\NC(=O)[C@H](Cc2ccccc2)NC(=O)[C@@H](C(C)C)NC(=O)[C@@H]([C@@H](C)CC)NC(=O)[C@H](NC(=O)[C@H](NC(=O)[C@H](CCCN)NC(=O)[C@H]2CCCN2C(=O)[C@H](NC(=O)[C@@H](NC(=O)[C@H](C)NC(=O)[C@H](NC(=O)CCCC(C)C)C(C)C)C(C)C)C(C)C)[C@@H](C)CC)[C@@H](C)OC(=O)[C@H](C(C)C)NC1=O [Compound 112, [Ala^12]-KF] ({Hexanoyl(5-Me)}-[dV]AV[dV][dP][Orn][d(aIle)][d(aThr)][d(aIle)][dV]F[Dhb]V; ester 8-C)	LoVo-Dox	nM	6850
[2H]C([2H])([2H])C([2H])(C([2H])([2H])[2H])[C@]([2H])(NC(=O)[C@@H](NC(=O)[C@H](NC(=O)CCCC(C)C)C(C)C)[C@@H](C)O)C(=O)N[C@@H](C(=O)N1CCC[C@@H]1C(=O)N[C@@H](CCCN)C(=O)N[C@@H](C(=O)N[C@H]1C(=O)N[C@H]([C@@H](C)CC)C(=O)N[C@H](C(C)C)C(=O)N[C@@H](Cc2ccccc2)C(=O)N/C(=C\C)C(=O)N[C@@H](C(C)C)C(=O)O[C@@H]1C)[C@@H](C)CC)C(C)C [Compound 100, [L-Val-d8^11]-KF]	LoVo-Dox	nM	1380

// below: CC50 requested for another molecule
[ask] What value of CC50 has been reported for the following molecule? C/C=C1\NC(=O)[C@H](Cc2ccc(F)c(F)c2)NC(=O)[C@@H](C(C)C)NC(=O)[C@@H]([C@@H](C)CC)NC(=O)[C@H](NC(=O)[C@H](NC(=O)[C@H](CCCN)NC(=O)[C@H]2CCCN2C(=O)[C@H](NC(=O)[C@@H](NC(=O)[C@@H](NC(=O)[C@H](NC(=O)CCCC(C)C)C(C)C)[C@@H](C)O)C(C)C)C(C)C)[C@@H](C)CC)[C@@H](C)OC(=O)[C@H](C(C)C)NC1=O [Compound 84, [Phe(3,4-F2)^3]-KF]
[reply] 176
